system: NCI-H292 lung cancer cells; assay: FDA drug screening, complete media vs cholesterol-free media with simvastatin (TABLE 2); assay type: cell-based, human; settings: complete media vs cholesterol-free media + simvastatin (0.04 μM); >0 enhanced anti-cancer activity, about 0 neutral, <0 antagonist
Structures can show the parent of a compound that is named as a salt.
Doc: threshold -0.3 (exclusive). Items with Difference beneath it return Met; others return Not met.

[[record]]
compound = "O=C(CCCCCCC(=O)Nc1ccccc1)NO [Vorinostat]"
class_assignment = "Not met"

[[record]]
compound = "Nc1cc(Cl)c(N=C2NCCN2)c(Cl)c1 [Apraclonidine (hydrochloride)]"
class_assignment = "Met"

[[record]]
compound = "COc1ccc(-c2cc(=S)ss2)cc1 [Anethole (trithione)]"
class_assignment = "Met"

[[record]]
compound = "O=c1[nH]cc(F)c(=O)[nH]1 [5-Fluorouracil]"
class_assignment = "Not met"

[[record]]
compound = "CC(C)C(=O)Oc1ccc(CO)cc1[C@H](CCN(C(C)C)C(C)C)c1ccccc1 [Fesoterodine]"
class_assignment = "Not met"

